# System: DAPK3
# Assay Setup: concentration: 1 μM, replicates: in singlicate; n = 1;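 also: KINOMEscan kinase panel screen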
Quantity Kind: %Inh (%)

compound=COc1cc2ncnc(Nc3cccc(Br)c3)c2cc1OC.Cl assayed_target=DAPK3 quantity_kind=%Inh unit_tag=% value_measured=9
compound="COc1cccc(CNC(=O)NC2CCN(c3ccnc(Nc4ccc(F)cc4)n3)C2)c1 (stereo not drawn)" assayed_target=DAPK3 quantity_kind=%Inh unit_tag=% value_measured=7
compound=O=C(Nc1n[nH]c2nc(-c3cccs3)c(Br)cc12)C1CCCC1 assayed_target=DAPK3 quantity_kind=%Inh unit_tag=% value_measured=3
compound=Cc1c(Cn2c(C)c(C)n3c(=O)cc(N4CCOCC4)nc23)cccc1C(F)(F)F assayed_target=DAPK3 quantity_kind=%Inh unit_tag=% value_measured=3
compound=COc1ccc(Nc2nccc(NCCNC(=O)Nc3cc(C)ccc3C)n2)cc1 assayed_target=DAPK3 quantity_kind=%Inh unit_tag=% value_measured=0
compound=COc1ccc(Nc2nccc(-c3ccc(NC(=O)c4cc5cc(F)ccc5[nH]4)cc3)n2)cc1 assayed_target=DAPK3 quantity_kind=%Inh unit_tag=% value_measured=1
compound=COc1nccc(-c2c(-c3ccc(F)cc3)ncn2CCCN2CCOCC2)n1 assayed_target=DAPK3 quantity_kind=%Inh unit_tag=% value_measured=22
compound=O=C1NC(=O)C(c2ccc(Cl)cc2)=C1Nc1cccc(Cl)c1 assayed_target=DAPK3 quantity_kind=%Inh unit_tag=% value_measured=18
compound=CC[C@@H]1CO[C@H](C(=O)Nc2ccccc2)CN1c1cc(-c2ccc3c(N)n[nH]c3c2)nc(NC)n1 assayed_target=DAPK3 quantity_kind=%Inh unit_tag=% value_measured=47
compound=NS(=O)(=O)c1cccc(N/C=C2\C(=O)Nc3ccc(S(=O)(=O)Cc4c(Cl)cccc4Cl)cc32)c1 assayed_target=DAPK3 quantity_kind=%Inh unit_tag=% value_measured=21
compound=CN1c2ccc(-c3ccc(C(N)=O)cc3)cc2-c2[nH]ncc2S1(=O)=O assayed_target=DAPK3 quantity_kind=%Inh unit_tag=% value_measured=26
compound="COC(=O)c1cccc(NC(=O)NC2CCN(c3ccnc(Nc4ccc(F)cc4)n3)C2)c1 (stereo not drawn)" assayed_target=DAPK3 quantity_kind=%Inh unit_tag=% value_measured=0
compound=Cl.Cl.Cl.N#Cc1ccc(CCNc2nccc(-c3cccc(CN4CCNCC4)c3)n2)cc1 assayed_target=DAPK3 quantity_kind=%Inh unit_tag=% value_measured=75
compound=Fc1ccc(-c2nn3cccc(F)c3c2-c2ccncc2)cc1 assayed_target=DAPK3 quantity_kind=%Inh unit_tag=% value_measured=5
compound=Cc1ccc(NC(=O)Nc2ccc(Cl)cc2)cc1-c1ccc(C(=O)Nc2ccncc2)cc1 assayed_target=DAPK3 quantity_kind=%Inh unit_tag=% value_measured=15

====

Listed compounds paired with reported %Inh
# System: CAMK1
# Assay Setup: concentration: 1 μM, replicates: in singlicate; n = 1
Quantity Kind: %Inh (%)

compound=CNc1nc(-c2ccc3c(N)n[nH]c3c2)cc(N2C[C@@H](C(=O)NC3CCCCC3)OC[C@H]2C)n1 value_measured=19
compound="O=C(Nc1n[nH]c2nc(-c3ccco3)c(Br)cc12)C1CCN(Cc2ccccc2)C1.O=C(O)[C@H](O)[C@@H](O)C(=O)O (stereo not shown)" value_measured=29
compound=O=c1cc(N2CCOCC2)nc2n(Cc3cccc(Cl)c3Cl)c3ccccc3n12 value_measured=43
compound=Cc1ccc(NC(=O)Nc2ccccc2)cc1-c1ccc(C(=O)Nc2ccncc2)cc1 value_measured=15
